Listing of entries alongside the reported inhibition at 100 µM.
procedure-details: Inhibition of migration of human HT-1080 cells at 100 uM measured by calcein AM/ethidium homodimer (EthD-1) staining method
Type: functional
The reply should be a number in %, with the unit left off.

Would you please look over these solved cases?
{"compound": "N=C(N)Nc1ccc(OC2CCCC(Oc3ccc(NC(=N)N)cc3)C2)cc1 (stereo not given)", "unit-of-measurement": "%", "inhibition at 100 µM": 40}
{"compound": "N=C(N)Nc1ccc(Oc2cccc(Oc3ccc(NC(=N)N)cc3)c2)cc1", "unit-of-measurement": "%", "inhibition at 100 µM": 90}
{"compound": "N=C(N)Nc1ccc(O[C@H]2C[C@@H](Oc3ccc(NC(=N)N)c4ccccc34)[C@H](NC(=N)N)C[C@@H]2NC(=N)N)c2ccccc12", "unit-of-measurement": "%", "inhibition at 100 µM": 40}
{"compound": "N=C(N)Nc1ccc(O[C@H]2C[C@@H](Oc3ccc(NC(=N)N)cc3NC(=N)N)[C@H](NC(=N)N)C[C@@H]2NC(=N)N)c(NC(=N)N)c1", "unit-of-measurement": "%", "inhibition at 100 µM": 60}

Next:
## Task May I ask what inhibition at 100 µM has been recorded for N=C(N)Nc1ccc(O[C@H]2C[C@@H](Oc3ccc(NC(=N)N)cc3NC(=N)N)[C@H](NC(=N)N)C[C@@H]2NC(=N)N)cc1 ?
## Result 30

====

test-system: Furin (Homo sapiens)
procedure-details: Inhibition of furin in human U2OS cells measured after 24 hrs by fluorescence assay
Format: cell-based
result-type: pXC50
Respond numerically, and do not add a unit to the figure.

Would you please look over these solved cases?
{"compound": "CNC(=O)NCC1CCN(Cc2cc(Oc3ccc(N4CCN(CCC(=O)O)CC4)nc3)nc(-c3cc(Cl)cc(Cl)c3)c2)CC1", "reported-result": 7.6}
{"compound": "COC(=O)NCC1CCN(Cc2cc(Oc3cnc(N4CCN(CCC(=O)O)CC4)nc3)nc(-c3cc(Cl)cc(Cl)c3)c2)CC1", "reported-result": 7.5}
{"compound": "CC(=O)NCC1CCN(Cc2cc(Oc3ccc(N4CCN(CCO)CC4)nc3)nc(-c3cc(Cl)cc(Cl)c3)c2)CC1", "reported-result": 8.5}
{"compound": "CN1CCCN(c2cnc(Oc3cc(CN4CCC(CC(=O)O)CC4)cc(-c4cc(Cl)cc(Cl)c4)n3)cn2)CC1", "reported-result": 7.7}
{"compound": "C[C@@H](O)CN1CCN(c2ncc(Oc3cc(CN4CCC(CC(=O)O)CC4)cc(-c4cc(Cl)cc(Cl)c4)n3)cn2)CC1", "reported-result": 7.7}
{"compound": "O=C(O)CC1CCN(Cc2cc(Oc3cnc(N4CCN5CCC4C5)nc3)nc(-c3cc(Cl)cc(Cl)c3)c2)CC1 (configuration not stated)", "reported-result": 7.7}

Next:
## Task May I ask what pXC50 has been recorded for CC(=O)NCC1CCN(Cc2cc(Oc3cnc(N4CCN(CCC(C)C(=O)O)CC4)nc3)nc(-c3cc(Cl)cc(Cl)c3)c2)CC1 (configuration not stated) ?
## Result 8.3

====

System: Mus musculus
procedure-details: Antifibrotic activity against bleomycin-induced mouse lung fibrosis model assessed as inhibition of TGF-beta secretion in lung at 10 mg/kg, po administered once daily
Type: functional
Label rule, in plain words: inhibition in vivo at 10 mg/kg of 70% and up is y, under 70% is n.

{"compound": "CC(=O)NCC1CCN(Cc2cc(Oc3cnc(N4CCN(CCC(C)C(=O)O)CC4)nc3)nc(-c3cc(Cl)cc(Cl)c3)c2)CC1 (stereo not drawn)", "label": "y"}
{"compound": "CC(CC1CCN(Cc2cc(Oc3cnc(N4CCN(C)CC4)nc3)nc(-c3cc(Cl)cc(Cl)c3)c2)CC1)C(=O)O (stereo not drawn)", "label": "y"}
{"compound": "CN1CCN(c2ncc(Oc3cc(CN4CCC(CC(=O)O)CC4)cc(-c4cc(Cl)cc(Cl)c4)n3)cn2)CC1", "label": "n"}
{"compound": "C[C@@H](O)CN1CCN(c2ncc(Oc3cc(CN4CCC(CC(=O)O)CC4)cc(-c4cc(Cl)cc(Cl)c4)n3)cn2)CC1", "label": "n"}
{"compound": "CS(=O)(=O)CCCN1CCN(c2ncc(Oc3cc(CN4CCC(CC(=O)O)CC4)cc(-c4cc(Cl)cc(Cl)c4)n3)cn2)CC1", "label": "n"}
{"compound": "O=C(O)CC1CCN(Cc2cc(Oc3cnc(N4CCNCC4)nc3)nc(-c3cc(Cl)cc(Cl)c3)c2)CC1", "label": "n"}

## Task Form field: inhibition in vivo at 10 mg/kg at least 70%? Entry: CN1CCN(c2cnc(Oc3cc(CN4CCC(CC(=O)O)CC4)cc(-c4cc(Cl)cc(Cl)c4)n3)cn2)CC1
## Result n

## Task Form field: inhibition in vivo at 10 mg/kg at least 70%? Entry: O=C(O)CC1CCN(Cc2cc(Oc3cnc(N4CCN(CCO)CC4)nc3)nc(-c3cc(Cl)cc(Cl)c3)c2)CC1
## Result n

====

procedure-details: Cytotoxicity against human HT-1080 cells assessed as cell viability at 100 uM and measured after 2 hrs by WST-1 method
Format: toxicity, cell-based
condition-summary: read-out: Activity
Listing of entries alongside the reported viability at 2 h, 100 µM.

Would you please look over these solved cases?
{"compound": "N=C(N)Nc1ccc(OCCCOc2ccc(NC(=N)N)cc2)cc1", "reported-result": "60%"}
{"compound": "N=C(N)Nc1ccc(O[C@H]2C[C@@H](Oc3ccc(NC(=N)N)c4ccccc34)[C@H](NC(=N)N)C[C@@H]2NC(=N)N)c2ccccc12", "reported-result": "> 90%"}
{"compound": "N=C(N)Nc1ccc(O[C@H]2C[C@@H](Oc3ccc(NC(=N)N)cc3)[C@H](NC(=N)N)C[C@@H]2NC(=N)N)cc1", "reported-result": "> 90%"}
{"compound": "N=C(N)Nc1ccc(OCCCOc2ccc(NC(=N)N)cc2NC(=N)N)c(NC(=N)N)c1", "reported-result": "> 90%"}
{"compound": "N=C(N)Nc1ccc(O[C@H]2C[C@@H](Oc3ccc(NC(=N)N)c4ccccc34)[C@H](NC(=N)N)C[C@@H]2NC(=N)N)cc1", "reported-result": "> 50%"}

## Task May I ask what viability at 2 h, 100 µM has been recorded for N=C(N)Nc1ccc(Oc2cccc(Oc3ccc(NC(=N)N)cc3)c2)cc1 ?
## Result > 20%

## Task May I ask what viability at 2 h, 100 µM has been recorded for N=C(N)Nc1ccc(O[C@H]2C[C@@H](Oc3ccc(NC(=N)N)c4ccccc34)[C@H](NC(=N)N)C[C@@H]2NC(=N)N)c(NC(=N)N)c1 ?
## Result > 80%

## Task May I ask what viability at 2 h, 100 µM has been recorded for N=C(N)Nc1ccc(O[C@H]2C[C@@H](Oc3ccc(NC(=N)N)cc3NC(=N)N)[C@H](NC(=N)N)C[C@@H]2NC(=N)N)cc1 ?
## Result > 90%

## Task May I ask what viability at 2 h, 100 µM has been recorded for N=C(N)Nc1ccc(Oc2cccc(Oc3ccc(NC(=N)N)cc3NC(=N)N)c2)c(NC(=N)N)c1 ?
## Result > 60%

## Task May I ask what viability at 2 h, 100 µM has been recorded for N=C(N)Nc1ccc(OC2CCCC(Oc3ccc(NC(=N)N)cc3NC(=N)N)C2)c(NC(=N)N)c1 (stereo not drawn) ?
## Result > 90%

## Task May I ask what viability at 2 h, 100 µM has been recorded for N=C(N)Nc1ccc(O[C@H]2C[C@@H](Oc3ccc(NC(=N)N)cc3NC(=N)N)[C@H](NC(=N)N)C[C@@H]2NC(=N)N)c(NC(=N)N)c1 ?
## Result > 90%

## Task May I ask what viability at 2 h, 100 µM has been recorded for N=C(N)Nc1ccc(O[C@H]2C[C@@H](Oc3ccc(NC(=N)N)cn3)[C@H](NC(=N)N)C[C@@H]2NC(=N)N)nc1 ?
## Result > 90%

## Task May I ask what viability at 2 h, 100 µM has been recorded for N=C(N)Nc1ccc(OC2CCCC(Oc3ccc(NC(=N)N)cc3)C2)cc1 (stereo not drawn) ?
## Result 70%

====

Listing of entries alongside the reported pXC50.
test-system: Furin (Homo sapiens, UniProt P09958)
Sequence (P09958 whole entry): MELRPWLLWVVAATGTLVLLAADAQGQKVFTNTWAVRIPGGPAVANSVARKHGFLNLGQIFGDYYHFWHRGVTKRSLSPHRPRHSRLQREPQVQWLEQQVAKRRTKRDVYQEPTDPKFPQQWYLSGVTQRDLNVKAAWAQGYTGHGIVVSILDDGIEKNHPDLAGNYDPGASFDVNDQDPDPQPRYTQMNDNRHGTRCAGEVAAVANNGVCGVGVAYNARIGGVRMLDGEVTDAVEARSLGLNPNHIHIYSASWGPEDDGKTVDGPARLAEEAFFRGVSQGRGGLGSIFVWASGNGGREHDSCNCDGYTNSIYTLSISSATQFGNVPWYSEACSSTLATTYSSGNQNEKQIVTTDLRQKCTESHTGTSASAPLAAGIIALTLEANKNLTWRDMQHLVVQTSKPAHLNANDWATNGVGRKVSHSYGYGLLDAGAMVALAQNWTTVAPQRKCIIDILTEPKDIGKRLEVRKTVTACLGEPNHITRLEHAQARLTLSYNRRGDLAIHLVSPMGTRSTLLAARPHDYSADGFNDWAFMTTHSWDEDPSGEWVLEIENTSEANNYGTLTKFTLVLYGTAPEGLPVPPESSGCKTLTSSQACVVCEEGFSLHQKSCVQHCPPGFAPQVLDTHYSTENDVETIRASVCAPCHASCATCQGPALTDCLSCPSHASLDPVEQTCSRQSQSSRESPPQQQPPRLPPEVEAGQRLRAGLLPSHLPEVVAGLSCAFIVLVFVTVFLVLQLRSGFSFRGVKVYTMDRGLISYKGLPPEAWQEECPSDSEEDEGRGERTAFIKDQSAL
procedure-details: Inhibition of furin in human U2OS cells measured after 24 hrs by fluorescence assay
Assay type: cell-based
Respond numerically, and do not add a unit to the figure.

Would you please look over these solved cases?
{"molecule": "CN1CCCN(c2ncc(Oc3cc(CN4CCC(CC(=O)O)CC4)cc(-c4cc(Cl)cc(Cl)c4)n3)cn2)CC1", "reported-result": 8.2}
{"molecule": "O=C(O)CC1CCN(Cc2cc(Oc3cnc(N4CCNCC4)nc3)nc(-c3cc(Cl)cc(Cl)c3)c2)CC1", "reported-result": 7.6}
{"molecule": "CC(CC1CCN(Cc2cc(Oc3cnc(N4CCN(C)CC4)nc3)nc(-c3cc(Cl)cc(Cl)c3)c2)CC1)C(=O)O (centres undefined)", "reported-result": 8}

## Task May I ask what pXC50 has been recorded for CN1CCN(c2ncc(Oc3cc(CN4CCC(CC(=O)O)CC4)cc(-c4cc(Cl)cc(Cl)c4)n3)cn2)CC1 ?
## Result 7.8

Cited source: ChEMBL document CHEMBL5150003
